test-target: Cell division control protein 42 homolog (Homo sapiens)
protocol-notes: inhibition of fluorescent GTP binding to wildtype Cdc42 – biochemical, multiplex bead flow cytometry, Bodipy-FL-GTP, dose response (AID 1334)
assay-context: bead-based flow cytometry, Bodipy-FL-GTP binding to GST-Cdc42; at 100 µM (top of the series) unless noted
Results with a measured potency or affinity are listed apart.
# label = 1.0 if fluorescence, percent of control (lower = inhibition) < 40% else 0.0

{"compound": "COc1cc(/C=N/Nc2nn3cnnc3c3ccccc23)ccc1O", "assigned-category": 0.0}
{"compound": "CCOC(=O)c1nc(Nc2ccc(C(C)=O)cc2)c2ccccc2n1", "assigned-category": 1.0}
{"compound": "O=[N+]([O-])c1ccc(/C=C/C2=NN(c3ccccc3)C(c3ccco3)C2)cc1 (stereo unspecified)", "assigned-category": 0.0}
{"compound": "COc1ccc(-c2csc(NC(=O)Cc3cccc4ccccc34)c2C(=O)O)cc1", "assigned-category": 1.0}
{"compound": "N#C/C(=C/c1ccc(-c2cc(C(=O)O)cc(C(=O)O)c2)o1)c1nc2ccccc2s1", "assigned-category": 1.0}
{"compound": "Cn1c(SCC(=O)Nc2cc(C(C)(C)C)nn2-c2ccccc2)nc2ccccc21", "assigned-category": 0.0}
{"compound": "O=C(O)c1cc([N+](=O)[O-])ccc1NCc1ccccc1", "assigned-category": 0.0}
{"compound": "Cc1nn(Cc2ccccc2)c(C)c1NC(=O)CSc1nc2c(c(C(F)(F)F)n1)CCc1ccccc1-2", "assigned-category": 1.0}
{"compound": "COc1cc2c(cc1OC)-c1cc(NC3CCCCCCC3)nc(=O)n1CC2", "assigned-category": 1.0}
{"compound": "CCN(CC)c1ccc(/C=C(\\C#N)c2nc(-c3cccs3)c(NC(C)=O)s2)cc1", "assigned-category": 0.0}
{"compound": "Cc1ccccc1C(=O)Nc1cccc(C(=O)N/N=C/c2cc(Cl)cc([N+](=O)[O-])c2O)c1", "assigned-category": 1.0}
{"compound": "N#C/C(=C/c1ccc(O)c([N+](=O)[O-])c1)C(=O)Nc1ccccc1", "assigned-category": 1.0}
{"compound": "COc1cc2[nH]c(=S)nc(NCCCOC(C)C)c2cc1OC", "assigned-category": 1.0}
{"compound": "Cc1ccc(-n2c(=O)cc(N3CCc4ccccc4C3)[nH]c2=O)cc1", "assigned-category": 0.0}
{"compound": "COc1ccc(CCNC(=O)C2CCCN2C(=O)NC2CCCCC2)cc1OC (stereo unspecified)", "assigned-category": 0.0}
{"compound": "CCOc1cc(/C=N/NC(=O)c2cccs2)cc([N+](=O)[O-])c1O", "assigned-category": 1.0}
{"compound": "O=C(Nc1cccc(Cl)c1)Nc1ccnc(-c2cccnc2)n1", "assigned-category": 1.0}
{"compound": "O=C(NCc1cccnc1)c1cccn2c(=O)c3sccc3nc12", "assigned-category": 1.0}
{"compound": "CC(C)(C)C(=O)/C=c1\\s/c(=C\\c2ccc(-c3ccc([N+](=O)[O-])cc3)o2)c(=O)n1CC(=O)NC(N)=O", "assigned-category": 0.0}
{"compound": "COc1ccc2o/c(=N/NC(=O)c3cccs3)c(C(N)=O)cc2c1", "assigned-category": 1.0}
{"compound": "O=C(O)c1ccc(/C=N/NC(=O)c2cc(-c3ccc4c5c(cccc35)CC4)n[nH]2)cc1", "assigned-category": 1.0}
{"compound": "Cc1ccc(-c2ccc(/C=C(\\C#N)C(=O)Nc3cc(C)nn3-c3ccccc3)o2)cc1", "assigned-category": 0.0}
{"compound": "OCC(CO)(CO)NCc1ccc(-c2ccccc2)cc1", "assigned-category": 0.0}
{"compound": "Cc1cc(C)n2nc(C(=O)Nc3cccc(S(=O)(=O)N4CCCC4)c3)nc2n1", "assigned-category": 1.0}
{"compound": "Cc1cc(C(F)F)n2nc(C(=O)Nc3ccc(S(=O)(=O)N4CCCCCC4)cc3)nc2n1", "assigned-category": 1.0}
{"compound": "Cc1ccc(Nc2c(F)c(F)c(F)c(F)c2C(=O)O)cc1", "assigned-category": 0.0}
{"compound": "Cc1ccc(Nc2nc(N)c(C#N)c(CC#N)c2C#N)cc1", "assigned-category": 1.0}
{"compound": "COCCNc1nc(=S)[nH]c2cc(OC)c(OC)cc12", "assigned-category": 1.0}
{"compound": "COc1ccc(-c2nnc(S/C(=C/c3ccc(Cl)cc3)C(=O)O)o2)cc1", "assigned-category": 1.0}
{"compound": "O=S(=O)(Cc1ccc(Cl)cc1)c1ccccc1-c1nnc(-c2ccccc2)o1", "assigned-category": 0.0}
{"compound": "COc1ccc2nc(C)cc(SCC(=O)N/N=C/c3ccc(O)c(O)c3)c2c1", "assigned-category": 1.0}
{"compound": "O=C(COc1ccccc1[N+](=O)[O-])Nc1cc(Cl)ccc1C(=O)O", "assigned-category": 1.0}
{"compound": "COc1ccc(CNc2nc3c(c(=O)n(Cc4ccc(Br)cc4)c(=O)n3C)n2C)cc1", "assigned-category": 1.0}
{"compound": "O=C(Nc1ccc2nc(-c3cccs3)[nH]c2c1)c1cccs1", "assigned-category": 1.0}
{"compound": "COc1cc(/C=N/Nc2ccc(S(N)(=O)=O)cc2)cc(OC)c1OC", "assigned-category": 1.0}
{"compound": "CCN1C(=O)/C(=C/C=C2/Sc3ccc4ccccc4c3N2CCO)SC1=S", "assigned-category": 1.0}
{"compound": "CCn1cc(C(=O)O)c(=O)c2cc(F)c(N/N=C/c3ccccc3)cc21", "assigned-category": 0.0}
{"compound": "COc1ccc(N=C2S/C(=C\\c3ccc(N4CCOCC4)o3)C(=O)N2CCc2c[nH]c3ccccc23)cc1", "assigned-category": 0.0}

Sourced from PubChem BioAssay
